Reference source: patent US10501461B2

Reported pKi, Rho kinase 1 (ROCK-I) (Homo sapiens).
pKi: −log10 of the molar value.

{"columns": ["Molecule", "pKi"],
 "data": [
  ["Cc1c[nH]c2nccc(Oc3ccc(C[C@@H](N)C(=O)Nc4ccccc4)cc3)c12", "7.52 to 8.52"],
  ["Cc1c[nH]c2nccc(Oc3ccc(CC(N)C(=O)N4CCC(c5ccncc5)C4)cc3F)c12 (racemic)", "> 8.52"],
  ["CN(CC1CCCCC1)C(=O)[C@@H](N)Cc1ccc(Oc2ccnc3[nH]ccc23)cc1", "7.52 to 8.52"],
  ["Cc1c[nH]c2nccc(Oc3ccc(CC(N)C(=O)N4CCn5cncc5C4)cc3F)c12 (stereo not drawn)", "> 8.52"],
  ["Cc1c[nH]c2nccc(Oc3ccc(C[C@H](N)C(=O)N4CCN(c5ccccc5)CC4)cc3F)c12", "> 8.52"],
  ["N[C@@H](Cc1ccc(Oc2ccnc3[nH]ccc23)cc1)C(=O)NCC1CCCCC1", "> 8.52"],
  ["N#Cc1ccc(-c2c[nH]c3nccc(Oc4ccc(C[C@H](N)C(=O)N5CCN(Cc6ccccc6)CC5)cc4)c23)s1", "> 8.52"],
  ["Cc1c[nH]c2ncnc(Oc3ccc(C[C@H](N)C(=O)N4CCc5ccccc5C4)cc3F)c12", "> 8.52"],
  ["COCCN1CCN(C(=O)C(N)Cc2ccc(Oc3ccnc4[nH]cc(C)c34)c(F)c2)CC1 (stereo not drawn)", "> 8.52"],
  ["N[C@@H](Cc1ccc(Oc2ccnc3[nH]ccc23)cc1)C(=O)NC1CCCCC1", "7.52 to 8.52"],
  ["CNC(=O)C(Cc1ccc(Oc2ccnc3[nH]ccc23)cc1)NCC1CCCCC1 (stereo not drawn)", "< 7.52"],
  ["NC(Cc1ccc(Oc2ccnc3[nH]ccc23)cc1)C(=O)Nc1ccc(C(F)(F)F)cc1 (single isomer, unassigned) [Example 91B]", "7.52 to 8.52"],
  ["Cc1c[nH]c2nccc(Oc3ccc(C[C@H](N)C(=O)N4CCN(C(=O)c5cn(C)cn5)CC4)cc3F)c12", "7.52 to 8.52"],
  ["Cc1c[nH]c2nccc(Oc3ccc(C[C@H](N)C(=O)NC4CN(C)C4)cc3F)c12", "> 8.52"],
  ["CN(C)C(=O)C(N)Cc1ccc(Oc2ccnc3[nH]ccc23)cc1 (stereo not drawn)", "< 7.52"],
  ["Cc1c[nH]c2nccc(Oc3ccc(CC(N)C(=O)N4CCCC4c4ccccc4)cc3F)c12 (single isomer, unassigned)", "7.52 to 8.52"],
  ["Cc1c[nH]c2nccc(Oc3ccc(C[C@H](N)C(=O)NC4CCCCC4)cc3F)c12", "> 8.52"],
  ["N[C@H](Cc1ccc(Oc2ccnc3[nH]ccc23)cc1)C(=O)Nc1ccccc1", "< 7.52"],
  ["Cc1c[nH]c2nccc(Oc3ccc(C[C@H](N)C(=O)N4C[C@@H]5C[C@H]4CN5Cc4ccccc4)cc3F)c12", "> 8.52"],
  ["Cc1c[nH]c2nccc(Oc3ccc(C[C@H](N)C(=O)N4CCC(c5ccncc5)CC4)cc3F)c12", "> 8.52"],
  ["Cc1c[nH]c2nccc(Oc3ccc(CC(N)C(=O)N4Cc5ccncc5C4)cc3F)c12 (stereo not drawn)", "> 8.52"],
  ["Cc1nc(CN2CCN(C(=O)[C@@H](N)Cc3ccc(Oc4ccnc5[nH]cc(C)c45)c(F)c3)CC2)cs1", "> 8.52"],
  ["Cc1c[nH]c2nccc(Oc3ccc(C[C@@H](N)C(=O)NCc4ccccc4)cc3)c12", "7.52 to 8.52"],
  ["Cc1c[nH]c2nccc(Oc3ccc(C[C@H](N)C(=O)N(C)CC4CCN(C)CC4)cc3F)c12", "7.52 to 8.52"],
  ["CN1CCC(NC(=O)[C@@H](N)Cc2ccc(Oc3ccnc4[nH]cc(-c5cncs5)c34)c(F)c2)CC1", "> 8.52"],
  ["Cc1c[nH]c2nccc(Oc3ccc(C[C@H](N)C(=O)N4CCN(C(=O)c5ccc(CN(C)C)cc5)CC4)cc3F)c12", "> 8.52"],
  ["Cc1c[nH]c2nccc(Oc3ccc(C[C@H](N)C(=O)N(C)C4CCN(C)CC4)cc3F)c12", "7.52 to 8.52"]
]}

---

biological target: Rho kinase 1 (ROCK-I) (Homo sapiens)
Sequence (Q13464 whole entry): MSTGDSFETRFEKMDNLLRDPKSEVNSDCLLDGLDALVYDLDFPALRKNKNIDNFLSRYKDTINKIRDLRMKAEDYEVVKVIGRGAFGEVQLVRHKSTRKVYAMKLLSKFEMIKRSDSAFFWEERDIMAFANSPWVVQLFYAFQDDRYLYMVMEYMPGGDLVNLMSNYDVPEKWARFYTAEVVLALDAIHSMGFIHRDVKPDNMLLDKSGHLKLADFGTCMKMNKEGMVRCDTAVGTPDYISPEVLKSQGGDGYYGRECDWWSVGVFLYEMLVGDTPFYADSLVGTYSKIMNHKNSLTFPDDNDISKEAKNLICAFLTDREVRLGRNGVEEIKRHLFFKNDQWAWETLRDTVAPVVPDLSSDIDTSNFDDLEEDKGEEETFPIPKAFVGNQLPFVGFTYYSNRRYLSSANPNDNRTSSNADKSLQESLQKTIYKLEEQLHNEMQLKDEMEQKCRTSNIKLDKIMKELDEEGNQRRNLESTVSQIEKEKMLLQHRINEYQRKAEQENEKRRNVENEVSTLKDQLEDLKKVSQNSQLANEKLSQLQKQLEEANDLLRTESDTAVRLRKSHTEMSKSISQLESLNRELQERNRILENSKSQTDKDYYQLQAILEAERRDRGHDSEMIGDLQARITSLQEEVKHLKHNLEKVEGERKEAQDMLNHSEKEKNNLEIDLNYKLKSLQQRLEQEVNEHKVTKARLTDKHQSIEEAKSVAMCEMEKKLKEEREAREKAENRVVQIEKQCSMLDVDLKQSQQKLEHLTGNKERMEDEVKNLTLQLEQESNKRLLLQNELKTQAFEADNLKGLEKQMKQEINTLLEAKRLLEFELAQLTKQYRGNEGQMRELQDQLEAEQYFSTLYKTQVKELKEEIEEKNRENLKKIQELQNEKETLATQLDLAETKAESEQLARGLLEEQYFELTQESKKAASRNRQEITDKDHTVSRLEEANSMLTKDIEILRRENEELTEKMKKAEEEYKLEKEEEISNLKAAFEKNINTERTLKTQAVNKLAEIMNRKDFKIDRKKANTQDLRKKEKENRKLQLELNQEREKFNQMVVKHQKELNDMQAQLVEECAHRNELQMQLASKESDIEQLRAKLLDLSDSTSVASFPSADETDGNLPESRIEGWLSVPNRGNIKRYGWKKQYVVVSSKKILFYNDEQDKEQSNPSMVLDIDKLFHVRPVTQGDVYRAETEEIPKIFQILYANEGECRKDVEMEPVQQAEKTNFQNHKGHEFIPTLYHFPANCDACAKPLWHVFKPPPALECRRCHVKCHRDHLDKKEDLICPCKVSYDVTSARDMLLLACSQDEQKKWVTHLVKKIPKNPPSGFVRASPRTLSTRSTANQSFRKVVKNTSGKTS
pKi: −log10 of the molar value.

{"columns": ["Compound", "Measured target", "pKi"],
 "data": [
  ["N#Cc1c[nH]c2nccc(Oc3ccc(C[C@H](N)C(=O)N4CCN(Cc5ccccc5)CC4)cc3F)c12", "Rho kinase 1 (ROCK-I) (Homo sapiens)", "> 8.52"],
  ["Cc1c[nH]c2nccc(Oc3ccc(C[C@H](N)C(=O)N[C@H]4CN5CCC4CC5)cc3F)c12", "Rho kinase 1 (ROCK-I) (Homo sapiens)", "> 8.52"],
  ["CCn1nccc1-c1c[nH]c2nccc(Oc3ccc(C[C@H](N)C(=O)N4CCN(Cc5ccccc5)CC4)cc3)c12", "Rho kinase 1 (ROCK-I) (Homo sapiens)", "7.52 to 8.52"],
  ["CNC(=O)c1cccc(CN2CCN(C(=O)[C@@H](N)Cc3ccc(Oc4ccnc5[nH]cc(C)c45)c(F)c3)CC2)c1", "Rho kinase 1 (ROCK-I) (Homo sapiens)", "> 8.52"],
  ["Cc1c[nH]c2nccc(Oc3ccc(C[C@H](N)C(=O)NCC4CCCCC4)cc3)c12", "Rho kinase 1 (ROCK-I) (Homo sapiens)", "> 8.52"],
  ["Cc1c[nH]c2nccc(Oc3ccc(C[C@H](N)C(=O)N4C[C@H]5CNC[C@H]5C4)cc3F)c12", "Rho kinase 1 (ROCK-I) (Homo sapiens)", "> 8.52"],
  ["Cc1c[nH]c2nccc(Oc3ccc(C[C@H](N)C(=O)N4CCN(C(=O)c5cnn(C)c5)CC4)cc3F)c12", "Rho kinase 1 (ROCK-I) (Homo sapiens)", "> 8.52"],
  ["Cc1c[nH]c2nccc(Oc3ccc(CC(N)C(=O)Nc4cccc5cnccc45)cc3F)c12 (stereo not drawn)", "Rho kinase 1 (ROCK-I) (Homo sapiens)", "> 8.52"],
  ["Cc1c[nH]c2nccc(Oc3ccc(C[C@H](N)C(=O)N4CCN(Cc5cccnc5)CC4)cc3F)c12", "Rho kinase 1 (ROCK-I) (Homo sapiens)", "> 8.52"],
  ["Cc1c[nH]c2nccc(Oc3ccc(C[C@H](N)C(=O)N4CCC(N(C)C)CC4)cc3F)c12", "Rho kinase 1 (ROCK-I) (Homo sapiens)", "> 8.52"],
  ["Cc1c[nH]c2nccc(Oc3ccc(C[C@H](N)C(=O)NCC4CCN(C)CC4)cc3F)c12", "Rho kinase 1 (ROCK-I) (Homo sapiens)", "7.52 to 8.52"],
  ["CC(N)(Cc1ccc(Oc2ccnc3[nH]ccc23)cc1)C(=O)NC1CCCCC1 (stereo not drawn)", "Rho kinase 1 (ROCK-I) (Homo sapiens)", "7.52 to 8.52"],
  ["Cc1c[nH]c2nccc(Oc3ccc(C[C@H](N)C(=O)N4CCN5CCOCC5C4)cc3F)c12 (stereo partly drawn)", "Rho kinase 1 (ROCK-I) (Homo sapiens)", "> 8.52"],
  ["CNC(=O)c1ccc(CN2CCN(C(=O)[C@@H](N)Cc3ccc(Oc4ccnc5[nH]cc(C)c45)c(F)c3)CC2)o1", "Rho kinase 1 (ROCK-I) (Homo sapiens)", "> 8.52"],
  ["N#Cc1c[nH]c2nccc(Oc3ccc(C[C@H](N)C(=O)N4CCN(Cc5ccccn5)CC4)cc3F)c12", "Rho kinase 1 (ROCK-I) (Homo sapiens)", "> 8.52"]
]}

---

Reported Ki, Rho kinase 1 (ROCK-I) (Homo sapiens, UniProt Q13464).

{"columns": ["Structure string", "Measured target", "Ki"],
 "data": [
  ["Cc1c[nH]c2nccc(Oc3ccc(C[C@H](N)C(=O)N4CCC(Cc5ccccc5)CC4)cc3F)c12", "Rho kinase 1 (ROCK-I) (Homo sapiens, UniProt Q13464)", "< 3 nM"],
  ["N[C@@H](Cc1ccc(Oc2ccnc3[nH]cc(C#CCO)c23)cc1)C(=O)NC1CCCCC1", "Rho kinase 1 (ROCK-I) (Homo sapiens, UniProt Q13464)", "< 3 nM"],
  ["Cc1c[nH]c2nccc(Oc3ccc(C[C@H](N)C(=O)N4CCN(C(=O)c5ccccc5)CC4)cc3F)c12", "Rho kinase 1 (ROCK-I) (Homo sapiens, UniProt Q13464)", "< 3 nM"],
  ["Cc1c[nH]c2nccc(Oc3ccc(C[C@H](N)C(=O)N4CCC(S(=O)(=O)c5ccccc5)CC4)cc3F)c12", "Rho kinase 1 (ROCK-I) (Homo sapiens, UniProt Q13464)", "< 3 nM"],
  ["CN1CCC(NC(=O)[C@@H](N)Cc2ccc(Oc3ccnc4[nH]ccc34)cc2)CC1", "Rho kinase 1 (ROCK-I) (Homo sapiens, UniProt Q13464)", "3 to 30 nM"],
  ["Cc1c[nH]c2nccc(Oc3ccc(C[C@@H](N)C(=O)NC4CCOCC4)cc3F)c12", "Rho kinase 1 (ROCK-I) (Homo sapiens, UniProt Q13464)", "3 to 30 nM"],
  ["Cc1c[nH]c2nccc(Oc3ccc(C[C@H](N)C(=O)Nc4ccccc4)cc3)c12", "Rho kinase 1 (ROCK-I) (Homo sapiens, UniProt Q13464)", "< 3 nM"],
  ["N[C@@H](Cc1ccc(Oc2ccnc3[nH]ccc23)cc1)C(=O)Nc1nccs1", "Rho kinase 1 (ROCK-I) (Homo sapiens, UniProt Q13464)", "3 to 30 nM"]
]}
